src = patent US20240024498A1

target: human Claudin18.2 (human); experiment: cell-based or functional assay
Readout Name: in vitro cell killing Emax, NUGC4-claudin18.2 low expression cells (CellTiter-Glo)
# output: bare number, no unit

Answered cases to consult:
Binder	Obs Value
ADC-4 (antibody, human IgG1, kappa, V domains shown, compound 9-A coupled to sulfhydryl groups after TCEP reduction; mean drug loading n=4.06 per antibody; positions not given) VH: EVQLVESGGGLVQPGGSLRLSCAASGFTFSDYGIHWVRQAPGKGLEWIAYISRGSSTIYYADTVKGRFTISRDNAKNSLYLQMTSLRAEDTAVYYCARGGYDTRNAMDYWGQGTTVTVSS VL: DIVMTQSPDSLAVSLGERATISCKSSQSLLNSGNQKNYLAWYQQKPGQPPKLLIYGASTRASGVPDRFSGSGSGTDFTLTISSLQAEDVAIYHCQNDLYYPLTFGQGTKLEIKR	61
ADC-2 (antibody, human IgG1, kappa, V domains shown, compound 9-A coupled to sulfhydryl groups after TCEP reduction; mean drug loading n=7.1 per antibody; positions not given) VH: EVQLVESGGGLVQPGGSLRLSCAASGFTFSDYGIHWVRQAPGKGLEWIAYISRGSSTIYYADTVKGRFTISRDNAKNSLYLQMTSLRAEDTAVYYCARGGYDTRNAMDYWGQGTTVTVSS VL: DIVMTQSPDSLAVSLGERATISCKSSQSLLNSGNQKNYLAWYQQKPGQPPKLLIYGASTRASGVPDRFSGSGSGTDFTLTISSLQAEDVAIYHCQNDLYYPLTFGQGTKLEIKR	69.8
ADC-3 (antibody, human IgG1, kappa, V domains shown, compound 9-A coupled to sulfhydryl groups after TCEP reduction; mean drug loading n=2.51 per antibody; positions not given) VH: EVQLVESGGGLVQPGGSLRLSCAASGFTFSDYGIHWVRQAPGKGLEWIAYISRGSSTIYYADTVKGRFTISRDNAKNSLYLQMTSLRAEDTAVYYCARGGYDTRNAMDYWGQGTTVTVSS VL: DIVMTQSPDSLAVSLGERATISCKSSQSLLNSGNQKNYLAWYQQKPGQPPKLLIYGASTRASGVPDRFSGSGSGTDFTLTISSLQAEDVAIYHCQNDLYYPLTFGQGTKLEIKR	49

Please look at the following binder next.
Problem: Bench note: what in vitro cell killing Emax, NUGC4-claudin18.2 low expression cells (CellTiter-Glo) did ADC-5 (antibody, human IgG1, kappa, V domains shown, compound 9-A coupled to sulfhydryl groups after TCEP reduction; mean drug loading n=6.8 per antibody; positions not given) VH: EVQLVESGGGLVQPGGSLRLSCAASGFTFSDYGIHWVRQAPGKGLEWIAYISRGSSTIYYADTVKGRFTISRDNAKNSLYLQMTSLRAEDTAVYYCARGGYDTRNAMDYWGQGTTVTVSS VL: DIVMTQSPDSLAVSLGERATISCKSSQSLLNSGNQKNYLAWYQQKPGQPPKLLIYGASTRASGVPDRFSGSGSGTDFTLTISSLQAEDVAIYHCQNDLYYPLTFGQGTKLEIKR show?
Solution: 69.9
